Field: kcat. Provide a value for each of the proteins that follow.
# Substrate: O=C(/C=C/c1ccc(O)cc1)c1c(O)cc(O)cc1O
# TEST_SUMMARY: purified protein
Numbers only, in min⁻¹.

| PROTEIN | kcat (min⁻¹) |
| --- | --- |
| MsCHI-2 (Medicago sativa; R36K) (protein) MAASITAITVENLEYPAVVTSPVTGKSYFLGGAGEKGLTIEGNFIKFTAIGVYLEDIAVASLAAKWKGKSSEELLETLDFYRDIISGPFEKLIRGSKIRELSGPEYSRKVMENCVAHLKSVGTYGDAEAEAMQKFAEAFKPVNFPPGASVFYRQSPDGILGLSFSPDTSIPEKEAALIENKAVSSAVLETMIGEHAVSPDLKRCLAARLPALLNEGAFKIGN | 25.4 |
| MsCHI-2 (Medicago sativa; G95V) (protein) MAASITAITVENLEYPAVVTSPVTGKSYFLGGAGERGLTIEGNFIKFTAIGVYLEDIAVASLAAKWKGKSSEELLETLDFYRDIISGPFEKLIRVSKIRELSGPEYSRKVMENCVAHLKSVGTYGDAEAEAMQKFAEAFKPVNFPPGASVFYRQSPDGILGLSFSPDTSIPEKEAALIENKAVSSAVLETMIGEHAVSPDLKRCLAARLPALLNEGAFKIGN | 512 |

Now look at this entry.
protein AtCHI-1 (Arabidopsis thaliana; V106G) (protein) MSSSNACASPSPFPAVTKLHVDSVTFVPSVKSPASSNPLFLGGAGVRGLDIQGKFVIFTVIGVYLEGNAVPSLSVKWKGKTTEELTESIPFFREIVTGAFEKFIKGTMKLPLTGQQYSEKVTENCVAIWKQLGLYTDCEAKAVEKFLEIFKEETFPPGSSILFALSPTGSLTVAFSKDDSIPETGIAVIENKLLAEAVLESIIGKNGVSPGTRLSVAERLSQLMMKNKDEKEVSDHSVEEKLAKEN , kcat observed: 332

Source: paper doi:10.1101/457440v1
